# System: LXYL-P1 (or P1) protein
# method: Specificity test on different glycoside (chromogenic) substrates hydrolysis by purified LXYL-P1
# Type: biochemical, Lentinula edodes M95.33
# run-parameters: control = PNP-Xyl; 5 mM substrate, pH 5.0, 50° C., 20 min, purified P1
Please respond with reported Relative activity (% control) for every item in the list.
Could you give the number and then its unit, please?

Report value only: Relative activity (% control), LXYL-P1 (or P1) protein, O=[N+]([O-])c1ccc(O[C@@H]2O[C@H](CO)[C@@H](O)[C@H](O)[C@H]2O)cc1 [PNP-Glc, p-nitrophenyl-β-D-glucopyranoside] 217 % control

Report value only: Relative activity (% control), LXYL-P1 (or P1) protein, O=[N+]([O-])c1ccc(O[C@@H]2OC[C@H](O)[C@H](O)[C@H]2O)cc1 [PNP-Ara, p-nitrophenyl-α-L-arabinopyranoside] 0 % control

Report value only: Relative activity (% control), LXYL-P1 (or P1) protein, O=[N+]([O-])c1ccc(O[C@@H]2O[C@H](CO)[C@H](O)[C@H](O)[C@H]2O)cc1 [PNP-Gal, p-nitrophenyl-β-D-galactopyranoside] 0 % control

Report value only: Relative activity (% control), LXYL-P1 (or P1) protein, O=[N+]([O-])c1ccc(O[C@@H]2OC[C@@H](O)[C@H](O)[C@H]2O)cc1 [PNP-Xyl, p-nitrophenyl-β-D-xylopyranoside] 100 % control
